Assay: MM1S cell viability effects, profiling panel, calcein-AM fluorescence, 48 h, basal (AID 1165);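 further: viability of MM1S multiple myeloma cells under basal unstimulated conditions; test concentration not given here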
Details: higher = more signal
Listed here are compounds together with their documented z-score.
Measured Metric: z-score

Compound	Measured Metric	Quantitative Readout
C=C(/C(=C/C[C@@H](OC(=O)c1ccncc1)c1ccc(OCCO)cc1)c1cc(C(=O)OC)ccc1OC)C(C)C	z-score	-0.166
CCCC=C(CCC)[C@@H](NP(=O)(c1ccccc1)c1ccccc1)c1ccc(C(F)(F)F)cc1	z-score	0.463
CC(C)(C)OC(=O)CC[C@@]1(C(=O)O)N=C(c2ccc(OCCCO)cc2)O[C@@H]1c1ccccc1CN=[N+]=[N-]	z-score	0.131
[N-]=[N+]=NCc1ccccc1C[C@]1(C(=O)NCC(O)CO)N=C(c2ccc(OCCCO)cc2)O[C@H]1c1ccccc1CN=[N+]=[N-] (some centres not stated)	z-score	-2.3
C#CCNC(=O)[C@H](Cc1ccccc1)NC(=O)[C@@H](N=[N+]=[N-])C(C)C	z-score	0.579
C=CCOC(=O)[C@@H]1[C@H]2C(=O)O[C@H](c3ccccc3)[C@H](c3ccccc3)N2[C@H](c2ccc(OCCOC(=O)[C@H]3C[C@H]4C(=O)N[C@@H](CC(C)C)C(=O)N4[C@H]3c3ccc(O)cc3)cc2)[C@@]12C(=O)Nc1ccc(I)cc12	z-score	0.38
O=C(CCCCCCC(=O)Nc1ccccc1)N/N=C/c1ccccc1	z-score	-0.669
COC(=O)C[C@H]1O[C@]2(C(=O)N(C)c3ccccc32)[C@@H](C)[C@@H]1[Si](C)(C)c1ccc(C)cc1	z-score	-1.5
C=CCOC(=O)[C@H]1[C@@H]2C(=O)O[C@@H](c3ccccc3)[C@@H](c3ccccc3)N2[C@@H](c2ccc(OCCOC(=O)[C@H]3C[C@H]4C(=O)N[C@@H](CCCC[N+](C)(C)C)C(=O)N4[C@H]3c3cccc(OCCO)c3)cc2)[C@]12C(=O)Nc1ccc(I)cc12	z-score	0.596
O=C1OCCC=C[C@H]2OC34C=CCN(c5ccc(Cl)cc5)C(=O)[C@H]3N(CCCCCO)C(=O)[C@@H]4C12 (some centres not stated)	z-score	1.54
CN(C)C(=O)[C@]1(CCC(=O)OC(C)(C)C)N=C(c2ccc(OCCCO)cc2)O[C@@H]1c1ccccc1	z-score	0.387
COCCOC(=O)N1C(=O)[C@@]2(c3cc(C#CC4=CCCCC4)ccc31)[C@H](c1ccccc1OCCO)N1[C@H](c3ccccc3)[C@H](c3ccccc3)OC(=O)[C@H]1[C@@H]2C(=O)N1CCc2cc(OC)c(OC)cc2C1	z-score	0.235
COCCOC(=O)N1C(=O)[C@@]2(c3ccccc31)[C@H](c1ccc(OCCO)cc1)N1[C@H](c3ccccc3)[C@H](c3ccccc3)OC(=O)[C@H]1[C@@H]2C(=O)Nc1nc2ccccc2s1	z-score	-1.15
C=C(/C=C/CNS(=O)(=O)c1ccc(C)cc1)[C@H](O)[C@H]1CCCN1S(=O)(=O)c1ccccc1[N+](=O)[O-]	z-score	-1.28
C=CCN1C(=O)[C@@]2(O[C@@H](CCO)[C@H]([Si](C)(C)c3ccc(OC)cc3)[C@H]2C)c2cc(N3C(=O)c4ccccc4Oc4ccccc43)ccc21	z-score	-2.94
COc1ccc(C#Cc2ccc3c(c2)[C@]2(C(=O)N3)[C@H](C(=O)N3CCc4cc(OC)c(OC)cc4C3)[C@H]3C(=O)O[C@H](c4ccccc4)[C@H](c4ccccc4)N3[C@@H]2c2ccc(O)cc2)cc1	z-score	-0.229
O=C1C[C@]2(c3ccc([N+](=O)[O-])cc3)C(=O)N(Cc3ccccc3)c3cc(CO)ccc3[C@H]2N1CC12CC3CC(CC(C3)C1)C2	z-score	0.397
COCCCNC(=O)[C@]1(Cc2ccccc2CN=[N+]=[N-])N=C(c2ccc(OCCCO)cc2)O[C@@H]1c1ccccc1	z-score	-2.62
COCCCNC(=O)[C@@]1(Sc2ccc(C)cc2)CC(=O)N(Cc2cc(C(F)(F)F)cc(C(F)(F)F)c2)[C@@H]1c1ccc(CO)cc1	z-score	1.35
C=CCC(OC(C)=O)[C@@H]1[C@@H](N(Cc2ccc(-c3ccccc3)cc2)C(=O)c2cccc3ccccc23)c2cc(OCCCO)ccc2N1C(=O)Cc1ccc2ccccc2c1 (some centres not stated)	z-score	-0.211
[N-]=[N+]=Nc1ccccc1C[C@]1(C(=O)NCc2ccccc2)N=C(c2ccc(OCCCO)cc2)O[C@H]1c1ccccc1	z-score	-2.41
C[C@H]1ON(c2ccc(C(=O)OC(C)(C)C)cc2)[C@@H](c2ccc(O)cc2)[C@@H]1C(=O)N1C(=O)OC[C@@H]1c1ccccc1	z-score	-2.72
O=c1cccc(-c2cccc(Cl)c2)o1	z-score	-0.345
CON(C)C(=O)C=C1C[C@@H](c2cccc(Cl)c2)O[C@@H](c2cccc(Cl)c2)O1	z-score	-2.44
CN(C)C(=O)[C@@]1(Cc2ccccc2N=[N+]=[N-])COC(c2ccc(OCCCO)cc2)=N1	z-score	-0.257
CCOC(=CC(=O)OC)CC(O)c1cccc(Cl)c1 (configuration not stated)	z-score	0.221
CC1CC/C=C\[C@H]2OC34C=CCN(c5ccc6ccccc6c5)C(=O)[C@H]3N(C(CO)C(C)C)C(=O)[C@@H]4C2C(=O)O1 (some centres not stated)	z-score	0.36
